Molecular target: ROR1 (antigen of the KD determination and of the Octet dissociation measurement) (UniProt Q01973 30-403, limits assumed)
Sequence (Q01973 30-403 limits assumed): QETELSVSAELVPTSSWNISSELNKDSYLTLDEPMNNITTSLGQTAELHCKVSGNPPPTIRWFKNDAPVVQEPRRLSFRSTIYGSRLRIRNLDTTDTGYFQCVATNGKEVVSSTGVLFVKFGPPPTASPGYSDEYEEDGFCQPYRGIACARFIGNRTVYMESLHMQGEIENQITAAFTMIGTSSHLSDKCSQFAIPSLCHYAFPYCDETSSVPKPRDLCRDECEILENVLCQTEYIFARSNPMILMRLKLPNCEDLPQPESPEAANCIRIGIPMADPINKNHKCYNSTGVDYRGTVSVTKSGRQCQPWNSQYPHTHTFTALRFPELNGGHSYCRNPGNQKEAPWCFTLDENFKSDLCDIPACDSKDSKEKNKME
Assay: Octet, antigen form not stated
measure name: Response
Please reply with the value in numeric form only.

[
  {
    "binder": "PR002573 (antibody, human IgG1, kappa, V domains shown, PR001364 variant: VL S93A; hIgG1; also called anti-ROR1 1015M3-D8(L: S93A) hIgG1) VH: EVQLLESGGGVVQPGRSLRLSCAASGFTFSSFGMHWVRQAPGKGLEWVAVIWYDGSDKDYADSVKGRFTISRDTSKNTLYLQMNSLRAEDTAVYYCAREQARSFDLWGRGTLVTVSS VL: DIVMTQSPSTLSASVGDRVTITCRASQTINNWLAWYQQKPGKAPKLLIYKASSLESGVPSRFSGSGSGTEFTLTISSLQPDDFATYYCQQYNAYSPMYTFGQGTKVEIKR",
    "measured": 0.723
  },
  {
    "binder": "PR002587 (antibody, human IgG1, kappa, V domains shown, PR001369 variant: VH G55A, VL S93A; hIgG1; also called anti-ROR1 1015M3-H10(H: G55A; L: S93A) hIgG1) VH: QVQLVESGGGVVQPGRSLRLSCAASGFTFSNYGIHWVRQAPGKGLEWVAIMWYDASNTDYADSVKGRFTISRDTSKNTLFLQMNSLRAEDTAVYYCAREQARSFDLWGRGTLVTVSS VL: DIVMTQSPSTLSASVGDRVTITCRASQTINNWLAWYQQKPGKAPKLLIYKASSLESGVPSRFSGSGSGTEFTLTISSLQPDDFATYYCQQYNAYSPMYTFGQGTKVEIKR",
    "measured": 0.756
  }
]

Form field: reported Response of PR002580 (antibody, human IgG1, kappa, V domains shown, PR001369 variant: VL N92Q; hIgG1; also called anti-ROR1 1015M3-H10(L: N92Q) hIgG1) VH: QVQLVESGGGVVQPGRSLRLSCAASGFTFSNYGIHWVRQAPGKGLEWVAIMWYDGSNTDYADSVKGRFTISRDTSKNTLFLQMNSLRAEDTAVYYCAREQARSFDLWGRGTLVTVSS VL: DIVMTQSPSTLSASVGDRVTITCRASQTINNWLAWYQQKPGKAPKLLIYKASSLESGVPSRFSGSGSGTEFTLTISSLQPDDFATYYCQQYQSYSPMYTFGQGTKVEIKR 0.985

Which measured Response value corresponds to PR002562 (antibody, human IgG1, kappa, V domains shown, PR001354 variant: VL N92Q; hIgG1; also called anti-ROR1 1015M2-C9(L: N92Q) hIgG1) VH: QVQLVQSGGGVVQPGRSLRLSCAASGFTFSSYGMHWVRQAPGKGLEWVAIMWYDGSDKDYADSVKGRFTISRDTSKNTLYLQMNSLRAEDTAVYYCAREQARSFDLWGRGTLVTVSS VL: DIVMTQSPSSLSASVGDRVTITCRASQTINNWLAWYQQKPGKAPKLLIYKASSLESGVPSRFSGSGSGTEFTLTISSLQPDDFATYYCQQYQSYSPMYTFGQGTKVEIKR ? 0.629

Name the reported Response value associated with the binder PR002585 (antibody, human IgG1, kappa, V domains shown, PR001369 variant: VH G55A; hIgG1; also called anti-ROR1 1015M3-H10(H: G55A) hIgG1) VH: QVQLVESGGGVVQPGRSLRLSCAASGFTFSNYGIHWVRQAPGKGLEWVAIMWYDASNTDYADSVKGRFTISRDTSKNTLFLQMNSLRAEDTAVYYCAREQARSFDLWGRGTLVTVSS VL: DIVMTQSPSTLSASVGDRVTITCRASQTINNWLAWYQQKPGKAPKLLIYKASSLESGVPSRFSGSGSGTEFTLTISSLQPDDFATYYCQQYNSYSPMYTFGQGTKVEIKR 0.771

# get_value(readout='Response', item= PR001356 (antibody, human IgG1, kappa, V domains shown, fully human IgG1, kappa; also called anti-ROR1 1015M2-E6 hIgG1; PR001356(WT)) VH: QVQLVESGGGVVQPGRSLRLSCAASGFTFSSYGMHWVRQAPGKGLEWVAVAWYDGVSEDYADSVKGRFTISRDNAKNTLYLQMNSLRAEDTAVYYCAREQARSFDLWGRGTLVTVSS VL: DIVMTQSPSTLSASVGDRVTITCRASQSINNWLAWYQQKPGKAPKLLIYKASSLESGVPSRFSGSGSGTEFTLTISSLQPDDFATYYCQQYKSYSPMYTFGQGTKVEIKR ) 0.617

What value of Response has been reported for the following binder? PR001369 (antibody, human IgG1, kappa, V domains shown, fully human IgG1, kappa; also called anti-ROR1 1015M3-H10 hIgG1; PR001369(WT)) VH: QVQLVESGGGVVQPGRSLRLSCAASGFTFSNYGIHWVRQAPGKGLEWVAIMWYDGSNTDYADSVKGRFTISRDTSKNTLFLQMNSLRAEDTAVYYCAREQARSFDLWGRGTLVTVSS VL: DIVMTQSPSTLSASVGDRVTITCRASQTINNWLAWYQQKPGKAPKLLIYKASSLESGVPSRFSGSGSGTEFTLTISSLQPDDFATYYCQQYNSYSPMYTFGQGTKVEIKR 0.288

Look up Response for this binder: PR002574 (antibody, human IgG1, kappa, V domains shown, PR001364 variant: VH D54E; hIgG1; also called anti-ROR1 1015M3-D8(H: D54E) hIgG1) VH: EVQLLESGGGVVQPGRSLRLSCAASGFTFSSFGMHWVRQAPGKGLEWVAVIWYEGSDKDYADSVKGRFTISRDTSKNTLYLQMNSLRAEDTAVYYCAREQARSFDLWGRGTLVTVSS VL: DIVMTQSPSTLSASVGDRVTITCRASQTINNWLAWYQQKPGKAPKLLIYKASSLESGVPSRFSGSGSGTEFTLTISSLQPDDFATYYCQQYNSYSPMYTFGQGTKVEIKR 0.485

Consider the binder PR002582 (antibody, human IgG1, kappa, V domains shown, PR001369 variant: VH D54E; hIgG1; also called anti-ROR1 1015M3-H10(H: D54E) hIgG1) VH: QVQLVESGGGVVQPGRSLRLSCAASGFTFSNYGIHWVRQAPGKGLEWVAIMWYEGSNTDYADSVKGRFTISRDTSKNTLFLQMNSLRAEDTAVYYCAREQARSFDLWGRGTLVTVSS VL: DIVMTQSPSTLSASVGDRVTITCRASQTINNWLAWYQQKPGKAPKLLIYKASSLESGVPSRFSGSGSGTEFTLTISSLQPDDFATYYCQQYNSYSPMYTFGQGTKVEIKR and give its measured Response. 0.798

Which Response is reported for this binder? PR002578 (antibody, human IgG1, kappa, V domains shown, PR001364 variant: VH G55A, VL N92Q; hIgG1; also called anti-ROR1 1015M3-D8(H: G55A; L: N92Q) hIgG1) VH: EVQLLESGGGVVQPGRSLRLSCAASGFTFSSFGMHWVRQAPGKGLEWVAVIWYDASDKDYADSVKGRFTISRDTSKNTLYLQMNSLRAEDTAVYYCAREQARSFDLWGRGTLVTVSS VL: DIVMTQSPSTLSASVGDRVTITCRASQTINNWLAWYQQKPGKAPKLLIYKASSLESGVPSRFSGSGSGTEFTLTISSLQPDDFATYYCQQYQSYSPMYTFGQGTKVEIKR 0.414

Fill blank: measured Response of the binder PR002563 (antibody, human IgG1, kappa, V domains shown, PR001354 variant: VL S93A; hIgG1; also called anti-ROR1 1015M2-C9(L: S93A) hIgG1) VH: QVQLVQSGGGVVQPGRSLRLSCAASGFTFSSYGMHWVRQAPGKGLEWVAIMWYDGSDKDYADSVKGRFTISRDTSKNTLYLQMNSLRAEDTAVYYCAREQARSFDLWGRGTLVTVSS VL: DIVMTQSPSSLSASVGDRVTITCRASQTINNWLAWYQQKPGKAPKLLIYKASSLESGVPSRFSGSGSGTEFTLTISSLQPDDFATYYCQQYNAYSPMYTFGQGTKVEIKR is ____. 0.757
